Molecular target: gp43 exo+ (bacteriophage T4 DNA polymerase) (Enterobacteria phage T4, UniProt P04415)
Construct: made in house
Sequence (P04415 whole entry): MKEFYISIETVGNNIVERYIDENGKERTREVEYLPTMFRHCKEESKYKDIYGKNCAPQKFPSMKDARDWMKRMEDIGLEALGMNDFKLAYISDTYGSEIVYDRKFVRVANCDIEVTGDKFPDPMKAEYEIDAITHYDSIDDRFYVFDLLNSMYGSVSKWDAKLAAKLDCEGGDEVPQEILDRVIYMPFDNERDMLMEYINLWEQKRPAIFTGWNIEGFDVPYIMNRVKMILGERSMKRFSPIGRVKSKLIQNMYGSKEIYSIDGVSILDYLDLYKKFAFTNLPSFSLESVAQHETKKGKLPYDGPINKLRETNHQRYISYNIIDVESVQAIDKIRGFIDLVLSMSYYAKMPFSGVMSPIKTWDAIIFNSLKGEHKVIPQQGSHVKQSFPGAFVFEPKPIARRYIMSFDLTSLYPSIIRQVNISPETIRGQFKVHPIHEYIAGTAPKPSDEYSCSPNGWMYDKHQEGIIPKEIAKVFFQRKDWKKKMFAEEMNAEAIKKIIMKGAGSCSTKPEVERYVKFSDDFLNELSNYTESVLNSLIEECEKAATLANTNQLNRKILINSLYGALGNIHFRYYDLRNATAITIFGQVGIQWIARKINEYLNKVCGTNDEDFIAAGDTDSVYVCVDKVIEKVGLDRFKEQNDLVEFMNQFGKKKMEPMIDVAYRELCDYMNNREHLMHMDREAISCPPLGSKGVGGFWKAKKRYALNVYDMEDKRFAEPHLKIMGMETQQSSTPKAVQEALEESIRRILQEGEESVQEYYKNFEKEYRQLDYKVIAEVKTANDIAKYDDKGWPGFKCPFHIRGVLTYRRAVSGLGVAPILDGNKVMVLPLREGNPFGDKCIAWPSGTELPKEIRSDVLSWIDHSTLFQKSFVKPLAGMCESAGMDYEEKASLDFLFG
Assay: Idle turnover measurements with KINSIM simulation
Format: biochemical
Settings: idle turnover opposite an abasic site; computer simulation fit of time courses
Quantity Measured: Kd (µM)
Report the figure in µM without appending any unit label.

>>> reported_result("O=P(O)(O)OP(=O)(O)OP(=O)(O)OC[C@H]1O[C@@H](n2ccc3cc(-c4ccccc4)ccc32)C[C@@H]1O [5-PhITP]")
20

Input: What measured Kd goes with O=[N+]([O-])c1ccc2c(ccn2[C@H]2C[C@H](O)[C@@H](COP(=O)(O)OP(=O)(O)OP(=O)(O)O)O2)c1 [5-NITP] ?
Output: 20

Sourced from patent US8114847B2
